Test system: PAK4;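 also: KINOMEscan kinase panel screen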
Settings: concentration: 1 μM,replicates: in singlicate; n = 1
readout-kind: %Inh

- molecule: "CN(c1ccc2c(c1)nc(NCc1ccc(F)cc1)n2C)c1ccnc(Nc2ccc(CS(C)(=O)=O)cc2)n1.Cl"
  tgt: "PAK4"
  readout-kind: "%Inh"
  meas-value: "15%"
- molecule: "CCn1c(-c2nonc2N)nc2cncc(Br)c21"
  tgt: "PAK4"
  readout-kind: "%Inh"
  meas-value: "7%"
- molecule: "O=C(Nc1ccccc1)c1cccc(Oc2ccc3nccn3n2)c1"
  tgt: "PAK4"
  readout-kind: "%Inh"
  meas-value: "0%"
- molecule: "CN(c1ccccc1CNc1nc(Nc2ccc3c(c2)CC(=O)N3)ncc1C(F)(F)F)S(C)(=O)=O"
  tgt: "PAK4"
  readout-kind: "%Inh"
  meas-value: "2%"
- molecule: "O=C(Nc1cccc(C(F)(F)F)c1)c1cccc(Oc2ccc3nccn3n2)c1"
  tgt: "PAK4"
  readout-kind: "%Inh"
  meas-value: "8%"

Give the measured %Inh of CSc1nccc(-c2c(-c3ccc(F)cc3)ncn2CCCN2CCOCC2)n1.Cl . 10%

Same thing, different molecule: Cn1cc(-c2cccc3c(N)c(C(N)=O)nnc23)cn1 1%
